Cited source for all entries: ChEMBL document CHEMBL5143564

So I've got a bunch of molecules here, and I need their Activity values.
# measurement_description: GSH reactivity in pH 7.4 buffer assessed as GSH adduct formation by measuring molecular weight at 1 mM by Q-TOF LC/MS analysis
# Format: physicochemical
# particulars: pH 7.4, 1000 µM
Entry rule: numbers only, all in Da.

What value of Activity has been recorded for this entry: "C#Cc1cccc(C#CS(N)(=O)=O)c1" 513

What value of Activity has been recorded for this entry: "NS(=O)(=O)C#Cc1ccccc1" 489
